- assay_target: human Y5 receptor (Homo sapiens)
- Construct: expressed in transfected cells; host or cells: mouse fibroblast LM(tk-) cells, e.g. L-hY5-7 (ATCC CRL-11995)
- Sequence (Q15761 whole entry): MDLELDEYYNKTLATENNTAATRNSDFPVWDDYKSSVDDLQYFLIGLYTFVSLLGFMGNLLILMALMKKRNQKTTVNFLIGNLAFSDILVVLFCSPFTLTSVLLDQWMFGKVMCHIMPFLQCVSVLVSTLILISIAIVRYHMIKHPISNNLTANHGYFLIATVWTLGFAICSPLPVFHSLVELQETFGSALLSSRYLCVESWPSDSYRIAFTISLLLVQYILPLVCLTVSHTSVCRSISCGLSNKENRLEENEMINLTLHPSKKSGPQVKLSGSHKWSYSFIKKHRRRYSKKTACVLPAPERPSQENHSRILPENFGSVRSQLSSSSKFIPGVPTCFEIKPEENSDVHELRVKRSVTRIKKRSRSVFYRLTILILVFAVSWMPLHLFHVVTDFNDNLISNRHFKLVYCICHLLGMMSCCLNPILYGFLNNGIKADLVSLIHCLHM
- method_description: Radioligand binding to membranes, cloned human Y5 receptor
- test_conditions: Table 4; read-out: Ki (nM) hNPY-5
readout_kind: Ki

{"smiles_input": "CCNc1nc(NCC)nc(NCCCn2ccnc2)n1", "Ki": "> 100000 nM"}

Reported Ki of "CCNc1nc(NCC)nc(NCCCCCn2cccn2)n1" : 94400 nM

Record "CCNc1nc(NCC)nc(NCc2ccccn2)n1" , field Ki: > 100000 nM
